test: Clearance in Sprague-Dawley rat plasma at 5 mg/kg, sc measured after 1 to 168 hrs post dose by LC/MS-MS method; format: ADME, organism-based
The following compounds are shown together with reported CL/F values.
Write the number in mL/min/kg without appending the unit.

Known results for compounds:
smilesCode | testValue
CC(C)[C@@H](CC1CCCCC1)NC(=O)[C@H]1Cc2ccc(O)cc2CN1 | 98.6
CC(C)[C@@H](CC1CCCCC1)NC(=O)[C@H]1Cc2ccc(C(N)=O)cc2CN1 | 71.2

Which CL/F is listed for CC(C)[C@@H](CC1CCCC1)NC(=O)[C@H]1Cc2ccc(O)cc2CN1 ?
130

====

biological target: Kappa-type opioid receptor (Homo sapiens) (UniProt P41145); test: Agonist activity at human kappa opioid receptor expressed in CHO cell membranes at 10 uM incubated for 60 mins by [35S]GTPgammaS binding assay; type: functional
Sequence (P41145 whole entry): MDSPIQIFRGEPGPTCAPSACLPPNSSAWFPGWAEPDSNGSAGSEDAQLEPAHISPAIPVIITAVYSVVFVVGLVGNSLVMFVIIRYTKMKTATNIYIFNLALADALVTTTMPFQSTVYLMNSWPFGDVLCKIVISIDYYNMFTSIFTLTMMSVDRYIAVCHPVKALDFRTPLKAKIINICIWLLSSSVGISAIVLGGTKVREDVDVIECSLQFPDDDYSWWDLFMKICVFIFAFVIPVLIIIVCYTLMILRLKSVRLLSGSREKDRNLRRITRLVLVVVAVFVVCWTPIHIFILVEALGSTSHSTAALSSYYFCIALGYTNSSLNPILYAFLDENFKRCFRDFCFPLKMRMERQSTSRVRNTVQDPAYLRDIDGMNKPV
The source made the active and inactive calls. The calls are words filed in the database; no cut-off is given here.
quantity: Activity

Known results for compounds:
compound | Activity
O=C(N[C@H](CC1CCCC1)C1CC1)[C@H]1Cc2ccc(O)cc2CN1 | inactive
CC(C)[C@@H](CC1CCCC1)NC(=O)[C@H]1Cc2ccc(O)cc2CN1 | inactive
O=C(NCCC1CCCCC1)[C@H]1Cc2ccc(O)cc2CN1 | inactive
CC(C)[C@@H](CC1CCCC1)NC(=O)[C@@]1(C)Cc2ccc(O)cc2CN1 | inactive
CC1CCC(C[C@@H](NC(=O)[C@H]2Cc3ccc(O)cc3CN2)C(C)C)CC1 (some centres undefined) | inactive

Which Activity is listed for O=C(N[C@H](CC1CCCCC1)c1ccccc1)[C@H]1Cc2ccc(O)cc2CN1 ?
inactive

Which Activity is listed for COc1ccc2c(c1)CN[C@@H](C(=O)N[C@H](CC1CCCCC1)C(C)C)C2 ?
inactive

Which Activity is listed for CC(C)[C@H](CC1CCCCC1)NC(=O)[C@H]1Cc2ccc(O)cc2CN1 ?
inactive

Which Activity is listed for CC(C)[C@H](CC1CCCCC1)NC(=O)[C@@H]1Cc2ccc(O)cc2CN1 ?
inactive

Which Activity is listed for CC(C)[C@@H](CC1CCCCC1)NC(=O)[C@H]1Cc2ccc(F)cc2CN1 ?
inactive

Which Activity is listed for CC(C)[C@@H](CC1CCCCC1)NC(=O)[C@H]1Cc2ccc(O)cc2CN1C ?
inactive

Which Activity is listed for CC(C)[C@@H](CC1CCCC1)NC(=O)[C@H]1Cc2ccc(C(N)=O)cc2CN1 ?
inactive

Which Activity is listed for CC(C)[C@@H](CC1CCCCC1)NC(=O)[C@H]1Cc2ccc(O)cc2CN1 ?
inactive

Which Activity is listed for CC(C)[C@@H](CC1CCCCC1)NC(=O)[C@H]1Cc2ccc(C(N)=O)cc2CN1 ?
inactive

Which Activity is listed for CC(C)[C@@H](CC1CCCCC1)NC(=O)[C@H]1Cc2ccccc2CN1 ?
inactive

Which Activity is listed for CC(C)[C@@H](CC1CCCCCC1)NC(=O)[C@H]1Cc2ccc(O)cc2CN1 ?
inactive

Which Activity is listed for CC(C)[C@@H](CC1CCCCC1)NC(=O)[C@@H]1Cc2ccc(O)cc2CN1 ?
inactive

Which Activity is listed for CC(C)[C@@H](CC1CCC1)NC(=O)[C@H]1Cc2ccc(O)cc2CN1 ?
inactive

Which Activity is listed for O=C(N[C@H](CC1CCCCC1)C1CC1)[C@H]1Cc2ccc(O)cc2CN1 ?
inactive

====

settings: rat, in vivo, sc, 5 mg/kg
quantity: Tmax (h)
Write the number in h without appending the unit.

Which Tmax is listed for CC(C)[C@@H](CC1CCCCC1)NC(=O)[C@H]1Cc2ccc(O)cc2CN1 ?
1

====

molecular target: Delta-type opioid receptor (Homo sapiens); conditions: CHO
quantity: Ke

smilesCode | Ke
CC(C)[C@@H](CC1CCCC1)NC(=O)[C@H]1Cc2ccc(O)cc2CN1 | 1570 nM
CC(C)[C@@H](CC1CCCCC1)NC(=O)[C@@H]1Cc2ccc(O)cc2CN1 | > 3000 nM
CC(C)[C@H](CC1CCCCC1)NC(=O)[C@@H]1Cc2ccc(O)cc2CN1 | > 3000 nM

Now consider the entry below.
Which Ke is reported with Delta-type opioid receptor (Homo sapiens) for this entry: CC(C)[C@H](CC1CCCCC1)NC(=O)[C@H]1Cc2ccc(O)cc2CN1 ?
> 3000 nM
